B1: TPR t1 (parent)
chain: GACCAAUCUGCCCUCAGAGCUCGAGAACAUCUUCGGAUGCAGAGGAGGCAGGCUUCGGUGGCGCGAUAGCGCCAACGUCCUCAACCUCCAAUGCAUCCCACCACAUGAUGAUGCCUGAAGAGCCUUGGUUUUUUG

# Variants of: B1
# assay explanation: polymerase ribozyme fitness, log enrichment relative to wild type (log ratio); higher = more active; in vitro selection for triplet polymerase activity
Label t when polymerase ribozyme fitness (log ratio) is at or above -2; anything below gets f.

Q. Quick check, polymerase ribozyme fitness (log ratio) >= -2? A27C C86G U133A
A. f

Q. Quick check, polymerase ribozyme fitness (log ratio) >= -2? C11A G60A U112A A118U
A. t

Q. Quick check, polymerase ribozyme fitness (log ratio) >= -2? A27U G71A U96A U109A
A. f

Q. Quick check, polymerase ribozyme fitness (log ratio) >= -2? C28G A118G
A. f

Q. Quick check, polymerase ribozyme fitness (log ratio) >= -2? C72U G113A
A. t

Q. Quick check, polymerase ribozyme fitness (log ratio) >= -2? C8G C22U C53A C101A A121G C124A
A. f

Q. Quick check, polymerase ribozyme fitness (log ratio) >= -2? C12G C40G G45A C56U
A. t

Q. Quick check, polymerase ribozyme fitness (log ratio) >= -2? A75G U106G C124A
A. t

Q. Quick check, polymerase ribozyme fitness (log ratio) >= -2? A46C G63U U106A G117A
A. f

Q. Quick check, polymerase ribozyme fitness (log ratio) >= -2? G61C C101U
A. t

Q. Quick check, polymerase ribozyme fitness (log ratio) >= -2? A95G U125A
A. t

Q. Quick check, polymerase ribozyme fitness (log ratio) >= -2? U9A C11A G42U C64U
A. t

Q. Quick check, polymerase ribozyme fitness (log ratio) >= -2? C11U C22U U38C
A. f

Q. Quick check, polymerase ribozyme fitness (log ratio) >= -2? C4U C73U
A. t

Q. Quick check, polymerase ribozyme fitness (log ratio) >= -2? G17A G63A C82U
A. f

Q. Quick check, polymerase ribozyme fitness (log ratio) >= -2? A43U U92G C124U
A. t

Q. Quick check, polymerase ribozyme fitness (log ratio) >= -2? A6U C12G C72U U78C
A. t

Q. Quick check, polymerase ribozyme fitness (log ratio) >= -2? C4U C98U G113U
A. f

Q. Quick check, polymerase ribozyme fitness (log ratio) >= -2? G36C G58C C101G A111U
A. f

Q. Quick check, polymerase ribozyme fitness (log ratio) >= -2? A100U U112G
A. t

Q. Quick check, polymerase ribozyme fitness (log ratio) >= -2? U32G A68U C80A C101U A111U U126G
A. f

Q. Quick check, polymerase ribozyme fitness (log ratio) >= -2? A6U A26U
A. f

Q. Quick check, polymerase ribozyme fitness (log ratio) >= -2? G44C C70A
A. f

Q. Quick check, polymerase ribozyme fitness (log ratio) >= -2? G52U A105G
A. f

Q. Quick check, polymerase ribozyme fitness (log ratio) >= -2? C11G C56U A74U A84G G135U
A. t

Q. Quick check, polymerase ribozyme fitness (log ratio) >= -2? C13G U112G
A. t

Q. Quick check, polymerase ribozyme fitness (log ratio) >= -2? A5G C12A C73A
A. t

Q. Quick check, polymerase ribozyme fitness (log ratio) >= -2? G51A A84G A108C U112G
A. f

Q. Quick check, polymerase ribozyme fitness (log ratio) >= -2? A46U C62G C88A
A. f

Q. Quick check, polymerase ribozyme fitness (log ratio) >= -2? G69A C82U G120A G122U
A. f

Q. Quick check, polymerase ribozyme fitness (log ratio) >= -2? G39A G69A A121U G128U
A. f

Q. Quick check, polymerase ribozyme fitness (log ratio) >= -2? A18G G39C
A. f

Q. Quick check, polymerase ribozyme fitness (log ratio) >= -2? G71U C88U A100C U106G
A. f

Q. Quick check, polymerase ribozyme fitness (log ratio) >= -2? C12A U130C
A. t

Q. Quick check, polymerase ribozyme fitness (log ratio) >= -2? G36C C102U
A. f

Q. Quick check, polymerase ribozyme fitness (log ratio) >= -2? C3U C94U U106C
A. t

Q. Quick check, polymerase ribozyme fitness (log ratio) >= -2? G71A C82G G117U
A. f

Q. Quick check, polymerase ribozyme fitness (log ratio) >= -2? C56A U81A G117A
A. t

Q. Quick check, polymerase ribozyme fitness (log ratio) >= -2? A27G G52A C56U
A. f

Q. Quick check, polymerase ribozyme fitness (log ratio) >= -2? C97U C114U
A. f

Q. Quick check, polymerase ribozyme fitness (log ratio) >= -2? G61U A111C
A. t

Q. Quick check, polymerase ribozyme fitness (log ratio) >= -2? C79A G117A
A. f

Q. Quick check, polymerase ribozyme fitness (log ratio) >= -2? C8A U112A C123A
A. t

Q. Quick check, polymerase ribozyme fitness (log ratio) >= -2? A2G C4G C8G G47U U54C
A. f

Q. Quick check, polymerase ribozyme fitness (log ratio) >= -2? C49G C99U G127U
A. f

Q. Quick check, polymerase ribozyme fitness (log ratio) >= -2? A6G G48A G52C C85G U112C
A. t

Q. Quick check, polymerase ribozyme fitness (log ratio) >= -2? G77U A105G
A. f

Q. Quick check, polymerase ribozyme fitness (log ratio) >= -2? G57A U106G A121C
A. t

Q. Quick check, polymerase ribozyme fitness (log ratio) >= -2? C8G G35U C123A
A. f

Q. Quick check, polymerase ribozyme fitness (log ratio) >= -2? G10A G110A
A. t

Q. Quick check, polymerase ribozyme fitness (log ratio) >= -2? U7G G120A
A. t

Q. Quick check, polymerase ribozyme fitness (log ratio) >= -2? G48C C86U C115A
A. t

Q. Quick check, polymerase ribozyme fitness (log ratio) >= -2? C34A C79U
A. f

Q. Quick check, polymerase ribozyme fitness (log ratio) >= -2? A6G C11A U109G A119C C123G U125C
A. f

Q. Quick check, polymerase ribozyme fitness (log ratio) >= -2? A37U C123U
A. t

Q. Quick check, polymerase ribozyme fitness (log ratio) >= -2? A2C G61A C82G
A. f

Q. Quick check, polymerase ribozyme fitness (log ratio) >= -2? G44A G77C U78A G93A
A. t

Q. Quick check, polymerase ribozyme fitness (log ratio) >= -2? C72G U132C
A. t

Q. Quick check, polymerase ribozyme fitness (log ratio) >= -2? C13A A26G C53G A84U A90G
A. f

Q. Quick check, polymerase ribozyme fitness (log ratio) >= -2? C40U G45U G63U U78C
A. f

Q. Quick check, polymerase ribozyme fitness (log ratio) >= -2? A111G G117C
A. f

Q. Quick check, polymerase ribozyme fitness (log ratio) >= -2? C56G U92G U96A G122A
A. f

Q. Quick check, polymerase ribozyme fitness (log ratio) >= -2? C20U G42C C88G U112A G117A
A. f

Q. Quick check, polymerase ribozyme fitness (log ratio) >= -2? G71A C89U U126C
A. t

Q. Quick check, polymerase ribozyme fitness (log ratio) >= -2? A16C G60C A111G
A. t

Q. Quick check, polymerase ribozyme fitness (log ratio) >= -2? G52U A68U A83C C101G C115U
A. f

Q. Quick check, polymerase ribozyme fitness (log ratio) >= -2? A26G
A. t

Q. Quick check, polymerase ribozyme fitness (log ratio) >= -2? G10U C13A C72U U109A
A. f

Q. Quick check, polymerase ribozyme fitness (log ratio) >= -2? C8G C98G U132C
A. f

Q. Quick check, polymerase ribozyme fitness (log ratio) >= -2? C49U A50U G51A
A. f

Q. Quick check, polymerase ribozyme fitness (log ratio) >= -2? G45U C82A C102U G122A
A. f

Q. Quick check, polymerase ribozyme fitness (log ratio) >= -2? G65A C79U
A. f

Q. Quick check, polymerase ribozyme fitness (log ratio) >= -2? G17A C94G
A. f

Q. Quick check, polymerase ribozyme fitness (log ratio) >= -2? U9C A16U G52U
A. t

Q. Quick check, polymerase ribozyme fitness (log ratio) >= -2? C11G A41G C73G
A. t

Q. Quick check, polymerase ribozyme fitness (log ratio) >= -2? C73U C102U U131C
A. t

Q. Quick check, polymerase ribozyme fitness (log ratio) >= -2? U14C A46U A74G
A. t

Q. Quick check, polymerase ribozyme fitness (log ratio) >= -2? U54G G60U C115A
A. f

Q. Quick check, polymerase ribozyme fitness (log ratio) >= -2? C8G C20U U32G C56G G113A U125G
A. f

Q. Quick check, polymerase ribozyme fitness (log ratio) >= -2? C11U C72G
A. t

Q. Quick check, polymerase ribozyme fitness (log ratio) >= -2? G63C A108U A121U G122A
A. f

Q. Quick check, polymerase ribozyme fitness (log ratio) >= -2? A95U G127A
A. f
